Quantity kind: melting point

stdin: Please report the recorded melting point for C#Cc1ccc(C(=O)O)nc1 .
stdout: 181 to 183 °C

***
stdin: Please report the recorded melting point for CC(C)n1ncc2cc(S(N)(=O)=O)ccc21 .
stdout: 168 to 170 °C

stdin: Please report the recorded melting point for COc1cc(C#N)cc(Cl)c1OC(C)C .
stdout: 84 to 86 °C

stdin: Please report the recorded melting point for Cc1ccc2nc(S)n(C)c(=O)c2c1 .
stdout: 275 to 277 °C

stdin: Please report the recorded melting point for CC(C)(C)OC(=O)Nc1cc(Br)ccc1C(=O)O .
stdout: 179 to 181 °C

====

Listed here are compounds together with their documented melting point.

stdin: Please report the recorded melting point for O=[N+]([O-])c1cnc2c(c1)CCCC2 .
stdout: 71 to 73 °C

stdin: Please report the recorded melting point for NC(=O)c1csc(C(=O)CCl)c1 .
stdout: 175 to 177 °C

***
stdin: Please report the recorded melting point for ClCc1sc2ccccc2c1Cl .
stdout: 77 to 79 °C

stdin: Please report the recorded melting point for O=c1n(CCCl)nc2ccccn12 .
stdout: 139 to 141 °C

stdin: Please report the recorded melting point for CC(CS(=O)(=O)c1ccc(F)cc1)C(=O)O (centres undefined) .
stdout: 128 to 130 °C

stdin: Please report the recorded melting point for COCc1ccsc1C(=O)O .
stdout: 119 to 121 °C

stdin: Please report the recorded melting point for O=C(CCl)N1CCNC1=O .
stdout: 195 to 197 °C

stdin: Please report the recorded melting point for O=C(O)CCNC(=O)c1ccc2[nH]ncc2c1 .
stdout: 240 to 242 °C

stdin: Please report the recorded melting point for COC(=O)c1ccncc1C(=O)OC .
stdout: 55 to 57 °C

stdin: Please report the recorded melting point for N#CCCn1cc(C(N)=O)cn1 .
stdout: 179 to 181 °C

stdin: Please report the recorded melting point for O=[N+]([O-])c1cc(NCC2CC2)ccc1S(=O)(=O)NCC1CC1 .
stdout: 132 to 134 °C

stdin: Please report the recorded melting point for O=C(Nc1nncs1)OCC(F)(F)F .
stdout: 213 to 215 °C

stdin: Please report the recorded melting point for O=C(O)COc1ccccc1OCc1ccccc1 .
stdout: 87 to 89 °C

stdin: Please report the recorded melting point for CS(=O)(=O)NCc1ccc(N)cc1 .
stdout: 146 to 148 °C
